Please provide measured Creatine for the entries that follow.
Test: Plasma chemistry markers after subcutaneous administration in beagle dogs (Example 8)
Conditions: 30 mg/kg subcutaneous days 1, 3, 5, 8, 15, 22, 29, plasma at day 31
Answers are plain numbers, in mg/dL.

Okay, here is my list. What is Creatine for each of these?
1. 830025 (antisense TTTGTAAATCGAAAGC; 3-10-3 cEt gapmer, further chemistry not given here) [compound 830025]
2. 798781 (CGTAAGATTCACAGCA; 3-10-3 cEt gapmer, further chemistry not given here) [compound 798781]
3. 830037 (antisense CTATTGGCTGATCTGG; 3-10-3 cEt gapmer, further chemistry not given here) [compound 830037]

OUT:
0.9
0.9
1.0
